These data points were gathered from ChEMBL document CHEMBL5346869.

- Measured On: Phosphatidylinositol 4,5-bisphosphate 3-kinase catalytic subunit gamma isoform (Homo sapiens)
- Sequence (P48736 whole entry, canonical isoform): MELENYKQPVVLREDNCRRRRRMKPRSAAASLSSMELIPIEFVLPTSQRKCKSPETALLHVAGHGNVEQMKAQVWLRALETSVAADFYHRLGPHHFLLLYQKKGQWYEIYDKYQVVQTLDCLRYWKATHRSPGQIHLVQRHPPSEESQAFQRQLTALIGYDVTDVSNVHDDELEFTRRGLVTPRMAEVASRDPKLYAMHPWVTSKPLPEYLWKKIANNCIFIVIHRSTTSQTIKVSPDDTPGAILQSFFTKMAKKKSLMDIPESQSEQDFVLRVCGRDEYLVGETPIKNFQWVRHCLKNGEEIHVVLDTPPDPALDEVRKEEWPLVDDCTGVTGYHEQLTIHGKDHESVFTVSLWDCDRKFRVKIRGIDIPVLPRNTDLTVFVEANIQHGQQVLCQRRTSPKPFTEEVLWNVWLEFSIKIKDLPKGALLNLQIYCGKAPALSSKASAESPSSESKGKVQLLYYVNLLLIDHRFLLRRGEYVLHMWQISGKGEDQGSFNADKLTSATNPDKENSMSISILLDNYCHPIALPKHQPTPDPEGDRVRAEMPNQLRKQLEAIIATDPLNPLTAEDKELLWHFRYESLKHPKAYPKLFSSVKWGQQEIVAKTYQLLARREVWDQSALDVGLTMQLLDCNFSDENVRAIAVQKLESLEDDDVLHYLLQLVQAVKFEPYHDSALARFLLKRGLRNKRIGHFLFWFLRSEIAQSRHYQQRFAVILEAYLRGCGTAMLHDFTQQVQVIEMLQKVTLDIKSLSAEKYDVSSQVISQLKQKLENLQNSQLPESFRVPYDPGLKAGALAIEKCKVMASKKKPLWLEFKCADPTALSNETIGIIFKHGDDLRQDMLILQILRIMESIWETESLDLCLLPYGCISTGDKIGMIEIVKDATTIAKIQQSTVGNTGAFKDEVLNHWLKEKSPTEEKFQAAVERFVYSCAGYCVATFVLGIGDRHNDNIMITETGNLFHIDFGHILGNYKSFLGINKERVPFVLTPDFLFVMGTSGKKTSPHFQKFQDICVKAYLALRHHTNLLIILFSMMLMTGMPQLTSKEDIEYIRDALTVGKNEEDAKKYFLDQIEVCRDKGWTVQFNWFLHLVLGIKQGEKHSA
Measurement Type: IC50 (nM)
Reply numerically in nM, unit not repeated.

{"Compound": "O=C1NC(=O)/C(=C/c2ccc3nccc(-c4ccncc4)c3c2)S1 [GSK-1059615]", "IC50 (nM)": 5}

Kindly review the next compound as well.
GET /values?readout=IC50&item= COc1ccc(C(=O)NNC(=O)c2cc3nc(-c4cnc(N)nc4)nc(N4CCOCC4)c3s2)cc1
13

----------
- Measured On: Serine/threonine-protein kinase mTOR (Homo sapiens, UniProt P42345)
- Protocol Description: Inhibition of N-terminal FLAG-tagged recombinant human mTOR (1362 to end residues) incubated for 60 mins in presence of ATP by LANCE Ultra […] assay
Measurement Type: IC50 (nM)
Reply numerically in nM, unit not repeated.

GET /values?readout=IC50&item= COc1ncc(-c2ccc3ncc(C#N)c(N4CCOCC4)c3c2)cc1NS(C)(=O)=O
1.2
